pKi: −log10 of the molar value.
This section presents pKi values reported for Histamine H3 receptor (Rattus norvegicus, UniProt Q9QYN8) in the literature.
Reported Endpoint: pKi

Answered cases to consult:
> print(dat)
                               smiles.entry  reported.endpoint  endpoint.result
1  C[C@@H](NC(=O)c1ccc(C#N)cc1)C(=O)N1CCN(CCCOc2ccc(-c3noc(-c4ccccc4)n3)c(F)c2)CC1                pKi             8.59
2  CCCS(=O)(=O)c1ccc(-c2ccc(CCN3CCC[C@H]3C)cc2)cc1                pKi             9.22
3           c1cc(OCCCN2CCCCC2)ccc1CN1CCCCC1                pKi             9.00
4  C[C@@H]1CCCN1CCCOc1ccc(-c2ccc(=O)n(C)n2)cc1                pKi             8.22
5  Cn1nc(-c2ccc(C(=O)N3CCC[C@H]3CN3CCCC3)cc2)ccc1=O                pKi             7.08
6  Cn1nc(-c2ccc(OC3CCN(C4CCC4)CC3)cc2)ccc1=O                pKi             8.52
7  CCCCCC(=O)c1ccc(OCCCN2CCN(C(=O)c3cccs3)CC2)cc1                pKi             7.79

(a) CC1CCN(C(=O)c2ccc(-c3ccc(OCCCN4CC[C@H](O)C4)cc3)cc2)CC1
(b) C[C@@H](NC(=O)CCN1CCOCC1)C(=O)N1CCN(CCCOc2ccc(-c3noc(CC4CCCC4)n3)c(F)c2)CC1
Please indicate which item has the smaller measured pKi: a versus b Answer format: the label of the selected item.
a

----------
This section presents pKi values reported for UniProt:Q9QYN8 in the literature.
pKi: −log10 of the molar value.
Reported Endpoint: pKi

Answered cases to consult:
> print(dat)
                                   compound   system.tested  reported.endpoint  endpoint.result
1  CCN(CC)C(=O)c1ccc(-c2ccc(OCCCN3CC[C@H](O)C3)cc2)cc1  UniProt:Q9QYN8                pKi             7.37
2               Clc1ccc(CCCOCCCN2CCCCC2)cc1  UniProt:Q9QYN8                pKi             7.77
3  CCCCCC(=O)c1ccc(OCCCN2CCN(C(=O)[C@@H](CC(C)C)NC(=O)OC(C)(C)C)CC2)cc1  UniProt:Q9QYN8                pKi             7.84
4  Cc1cccnc1-n1nc(C)c(-c2ccc(OCCCN3CCC[C@H]3C)cc2)cc1=O  UniProt:Q9QYN8                pKi             7.77

(a) CC(C)CC(=O)N[C@H](C)C(=O)N1CCN(CCCOc2ccc(-c3noc(CC4CCCC4)n3)c(F)c2)CC1
(b) CN(C)CCCCNc1c2c(nc3ccccc13)CCCCC2
Select the item with the higher value of pKi from the options a and b listed. Answer format: the label of the selected item.
a

(1) C[C@@H]1CCCN1CCc1ccc(-c2ccc(=O)n(Cc3ccccc3)n2)cc1
(2) CC[C@@H](N)C(=O)N1CCN(CCCOc2ccc(C(=O)C3CC3)cc2)CC1 (stereo in doubt; 43)
(3) c1cc2c(cc1OC1CCOCC1)CCC1(CCN(C3CCC3)CC1)O2
(4) CC(C)NCCCOc1ccc(-c2ccc(C(=O)N3[C@@H](C)CC[C@@H]3C)cc2)cc1
(5) C(#CCCC1CCCC1)CCc1c[nH]cn1
Descending sort on pKi required. I'd appreciate it if you listed the labels in the requested order.
5, 2, 1, 3, 4

(P) C[C@@H](NC(=O)c1cccc(OC(F)(F)F)c1)C(=O)N1CCN(CCCOc2ccc(-c3noc(CC4CCCC4)n3)c(F)c2)CC1
(Q) O=c1cc(-c2ccc(OC3CCN(C4CCC4)CC3)cc2)cn[nH]1
Please indicate which item has the smaller measured pKi: P versus Q Answer format: the label of the selected item.
P

(1) O=S1(=O)CCC(Oc2ccc3c(c2)CCC2(CCN(C4CCC4)CC2)O3)CC1
(2) O=C1c2ccc(-c3ccc(OC(F)(F)F)cc3)cc2CCN1CCN1CCCC1
Please indicate which item has the smaller measured pKi: 1 versus 2 Answer format: the label of the selected item.
2
